Entries annotated with measured LC retention time
assay-overview: HILIC, Merck SeQuant ZIC-HILIC, 150 × 2.1 mm, 5 µm, 0.75 mL/min, estimated dead time 0.44 min; A: water + 0.1% acetic acid + 10 mM ammonium acetate, pH 4; B: 5% water + 95% acetonitrile + 0.1% acetic acid + 10 mM ammonium acetate, pH 4; gradient (min/%B) 0/95 5/95 20/57 25/57 30/95 40/95
run-parameters: stereoisomer not certain

[
  {
    "compound": "NCCS(=O)(=O)O",
    "LC retention time": "12 min"
  },
  {
    "compound": "CC(=O)N[C@@H](CC(=O)O)C(=O)O",
    "LC retention time": "13.5 min"
  },
  {
    "compound": "NC(=O)Cc1c[nH]c2ccccc12 [INDOLE-3-ACETAMIDE]",
    "LC retention time": "0.95 min"
  },
  {
    "compound": "CC(=O)NC1C(O)CC(O)(C(=O)O)OC1C(O)C(O)CO (stereo not given) [N-ACETYLNEURAMINATE]",
    "LC retention time": "12.9 min"
  }
]

q: // LC retention time lookup, key: "Nc1nc2nccnc2c(=O)[nH]1"
a: 5.43 min

====

assay-overview: RP, Waters CORTECS T3, 100 × 2.1 mm, 2.7 µm, 0.2 mL/min, estimated dead time 1.1 min; A: water + 0.1% formic acid, pH 3; B: methanol + 0.1% formic acid, pH 3; gradient (min/%B) 0/0 1/0 6/5 30/100 35/100 35.1/0 40/0
run-parameters: stereoisomer not certain
Entries annotated with measured LC retention time
# number only, unit min dropped from output

In the examples that follow, each entry is paired with its recorded LC retention time.
[
  {
    "compound": "N[C@@H](Cc1cc(I)c(Oc2ccc(O)cc2)c(I)c1)C(=O)O",
    "LC retention time [min]": 19.2
  },
  {
    "compound": "CCOC(OCC)C(O)COP(=O)(O)O (stereo not drawn) [GLYCERALDEHYDE 3-PHOSPHATE DIETHYL ACETAL]",
    "LC retention time [min]": 8.23
  }
]

// next entry
q: // LC retention time lookup, key: "CC(=O)N[C@@H](Cc1ccccc1)C(=O)O"
a: 15.3

====

assay-overview: RP, Waters CORTECS T3, 100 × 2.1 mm, 2.7 µm, 0.15 mL/min, estimated dead time 1.5 min; A: water + 0.1% formic acid, pH 3; B: methanol + 0.1% formic acid, pH 3; gradient (min/%B) 0/0 1/0 6/5 30/100 35/100 35.1/0 40/0
run-parameters: stereoisomer not certain
Entries annotated with measured log10 of LC retention time
Would you kindly interpret these values as log10 of LC retention time expressed in min?

[
  {
    "compound": "Nc1nc2nc[nH]c2c(=O)[nH]1",
    "log10 of LC retention time": 0.97
  }
]

q: // log10 of LC retention time lookup, key: CCCCCCCCCCCCCCCC(O)C(N)CO (centres undefined)
a: 1.45

q: How about O=c1cccc[nH]1 [2-HYDROXYPYRIDINE] ?
a: 0.76

====

assay-overview: RP, Waters CORTECS T3, 100 × 2.1 mm, 2.7 µm, 0.2 mL/min, estimated dead time 1.1 min; A: water + 0.1% formic acid, pH 3; B: methanol + 0.1% formic acid, pH 3; gradient (min/%B) 0/5 5/5 25/95 25.1/100 35/100 35.1/5 45/5
run-parameters: stereoisomer not certain
measured-parameter: LC retention time (min)
# number only, unit min dropped from output

[
  {
    "compound": "c1ncc2[nH]cnc2n1",
    "measured-parameter": "LC retention time",
    "val": 6.98
  },
  {
    "compound": "Nc1ncnc2nc[nH]c12",
    "measured-parameter": "LC retention time",
    "val": 2.67
  },
  {
    "compound": "OCC1OC(OCC2OC(OC3(CO)OC(CO)C(O)C3O)C(O)C(O)C2O)C(O)C(O)C1O [D-(+)-RAFFINOSE]",
    "measured-parameter": "LC retention time",
    "val": 2.67
  },
  {
    "compound": "Nc1nc2c(ncn2C2OC(COP(=O)(O)O)C(O)C2O)c(=O)[nH]1 (configuration not stated) [GUANOSINE 5'-MONOPHOSPHATE]",
    "measured-parameter": "LC retention time",
    "val": 2.67
  },
  {
    "compound": "CC(=O)NCCCC(=O)[O-] [4-ACETAMIDOBUTANOATE]",
    "measured-parameter": "LC retention time",
    "val": 9.19
  },
  {
    "compound": "CCOC(OCC)C(O)COP(=O)(O)O (configuration not stated) [GLYCERALDEHYDE 3-PHOSPHATE DIETHYL ACETAL]",
    "measured-parameter": "LC retention time",
    "val": 12.2
  },
  {
    "compound": "N[C@@H](CS(=O)(=O)O)C(=O)O",
    "measured-parameter": "LC retention time",
    "val": 2.49
  },
  {
    "compound": "NCCS(=O)(=O)O",
    "measured-parameter": "LC retention time",
    "val": 2.48
  }
]

q: // LC retention time lookup, key: N[C@@H](Cc1ccc(O)c(O)c1)C(=O)O [3,4-DIHYDROXY-L-PHENYLALANINE]
a: 2.75

q: How about CC(=O)NC(CCCCN)C(=O)O (configuration not stated) ?
a: 2.64

q: How about "CC(=O)N[C@H](Cc1c[nH]c2ccccc12)C(=O)O" ?
a: 19.2

q: How about Cn1cncc1CC(NC(=O)CCN)C(=O)O (configuration not stated) ?
a: 2.43

q: How about O=c1[nH]c(=O)c2ncn(C3OC(COP(=O)(O)O)C(O)C3O)c2[nH]1 (configuration not stated) [XANTHOSINE 5'-MONOPHOSPHATE] ?
a: 2.67

q: How about NCCC(=O)NC(Cc1cnc[nH]1)C(=O)O (configuration not stated) ?
a: 2.43

====

assay-overview: RP, Waters CORTECS T3, 100 × 2.1 mm, 2.7 µm, 0.1 mL/min, estimated dead time 2.2 min; A: water + 0.1% formic acid, pH 3; B: methanol + 0.1% formic acid, pH 3; gradient (min/%B) 0/0 1/0 6/5 30/100 35/100 35.1/0 40/0
run-parameters: stereoisomer not certain
measured-parameter: LC retention time (min)
# number only, unit min dropped from output

In the examples that follow, each entry is paired with its recorded LC retention time.
[
  {
    "compound": "NC(Cc1cc(I)c(Oc2cc(I)c(O)c(I)c2)c(I)c1)C(=O)O (stereo not drawn)",
    "unit-tag": "min",
    "LC retention time": 20.3
  },
  {
    "compound": "Nc1nc2ncc(CNc3ccc(C(=O)NC(CCC(=O)O)C(=O)O)cc3)nc2c(=O)[nH]1 (stereo not drawn)",
    "unit-tag": "min",
    "LC retention time": 11.7
  }
]

q: // LC retention time lookup, key: "Cc1cc2nc[nH]c2cc1C"
a: 11.8

q: How about NC(=O)Cc1c[nH]c2ccccc12 [INDOLE-3-ACETAMIDE] ?
a: 11.6

q: How about CC(=O)OCC(=O)C1(O)CCC2C3CCC4=CC(=O)CCC4(C)C3C(O)CC21C (stereo not drawn) [CORTISOL 21-ACETATE] ?
a: 19.9

q: How about "COc1ccc2[nH]cc(CCNC(C)=O)c2c1" ?
a: 14.4

q: How about "CC(=O)NCCc1c[nH]c2ccc(O)cc12" ?
a: 10.6

q: How about CC12CCC(=O)C=C1CCC1C2C(O)CC2(C)C1CCC2(O)C(=O)CO (stereo not drawn) ?
a: 18.5

q: How about "O=CCc1c[nH]c2ccccc12" ?
a: 10.6

q: How about "Cc1cc2nc3[nH]c(=O)[nH]c(=O)c3nc2cc1C" ?
a: 16.3

====

assay-overview: RP, Waters CORTECS T3, 100 × 2.1 mm, 2.7 µm, 0.15 mL/min, estimated dead time 1.5 min; A: water + 0.1% formic acid, pH 3; B: methanol + 0.1% formic acid, pH 3; gradient (min/%B) 0/0 1/0 6/5 30/100 35/100 35.1/0 40/0
run-parameters: stereoisomer not certain
measured-parameter: LC retention time (min)
# number only, unit min dropped from output

In the examples that follow, each entry is paired with its recorded LC retention time.
[
  {
    "molecule": "N[C@@H](Cc1ccc(O)c(O)c1)C(=O)O [3,4-DIHYDROXY-L-PHENYLALANINE]",
    "unit-tag": "min",
    "LC retention time": 1.87
  },
  {
    "molecule": "CC(C)(CO)C(O)C(=O)NCCC(=O)O (stereo unspecified)",
    "unit-tag": "min",
    "LC retention time": 10.9
  },
  {
    "molecule": "NC(=O)c1cccnc1 [NICOTINAMIDE]",
    "unit-tag": "min",
    "LC retention time": 3.31
  }
]

q: // LC retention time lookup, key: "O=c1cc[nH]c(=O)[nH]1"
a: 1.85

q: How about "CC(=O)NCCc1c[nH]c2ccc(O)cc12" ?
a: 13.3

q: How about Cn1cnc2c(ncn2C2OC(CO)C(O)C2O)c1=N (stereo unspecified) ?
a: 10.7

q: How about "Cc1ncc(C[n+]2csc(CCO)c2C)c(N)n1" ?
a: 1.78

q: How about "COc1ccc2[nH]cc(CCNC(C)=O)c2c1" ?
a: 17.5

q: How about O=C([O-])Cc1c[nH]c2ccccc12 [INDOLE-3-ACETATE] ?
a: 17.9

q: How about NC(N)=N[C@@H](CC(=O)O)C(=O)O [N-AMIDINO-L-ASPARTATE] ?
a: 1.78

q: How about NC(Cc1ccc(Oc2cc(I)c(O)c(I)c2)c(I)c1)C(=O)O (stereo unspecified) ?
a: 22.5
